Hello, the source for this data is patent US11999727B2, in case you need it.

Measured pIC50 accompanies every entry in the list below.
Target: PRMT5 (Homo sapiens)
Construct: purchased Viva (custom protein)
Method Summary: PRMT5 biochemical IC50 assay with no cofactor
Condition Parameters: PRMT5, no cofactor; read-out: No Cofactor/rel IC50
pIC50: −log10 of the molar value.

Past entries and their recorded results:
Cc1cc(NC(=O)C(=O)N2C[C@@H](C)CC[C@@H]2c2ccc(NCC(F)(F)F)cc2)cnc1N (single isomer, unassigned) [Compound 528] :: < 6.30
Cc1cc(NC(=O)C(=O)N2C[C@@H](C)CC[C@@H]2c2cccc(O)c2)cnc1N (racemic) [Compound 187] :: 6.30 to 7.30
Cc1cc(NC(=O)C(=O)N2C[C@@H](C)CC[C@@H]2c2ccc3c(c2)CCC(=O)N3)cnc1C (single isomer, unassigned) [Compound 619] :: < 6.30
Cc1cc(NC(=O)C(=O)N2C[C@H](C)[C@H](C)C[C@@H]2c2ccccc2)cnc1N (single isomer, unassigned) [Compound 299] :: < 6.30
Cc1cc(NC(=O)C(=O)N2CCCC[C@H]2c2ccc3[nH]ncc3c2)cnc1N (single isomer, unassigned) [Compound 518] :: 6.30 to 7.30

We next turn to a different compound, shown below.
Which measured pIC50 belongs to C[C@@H]1CC[C@@H](c2ccccc2F)N(C(=O)C(=O)Nc2cncc(C(N)=O)c2)C1 (racemic) [Compound 595] , tested on PRMT5 (Homo sapiens)?
6.30 to 7.30

---

Tested on: HAP1 MTAP-intact cell line
Method Summary: SDMA in-cell western assay, HAP1 MTAP-intact
Format: cell-based
Condition Parameters: Homo sapiens, HAP1, SDMA in-cell western, HAP1 MTAP-intact; read-out: MTAP HAP1 intact IC50
Measured IC50 accompanies every entry in the list below.

Past entries and their recorded results:
CCc1cc(NC(=O)C(=O)N2C[C@H](C)CC[C@H]2c2ccn(-c3cc[nH]n3)n2)cnc1N (single isomer, unassigned) [Compound 931] :: 0.1 to 1 µM
Cc1cc(NC(=O)C(=O)N2C[C@@H](C)[C@H](C)C[C@H]2c2ccccc2)cnc1N (single isomer, unassigned) [Compound 313] :: > 1 µM

Which IC50 is listed for C[C@H]1CC[C@H](c2ccc3c(c2)C(=O)NC3)N(C(=O)C(=O)Nc2cncc(C(N)=O)c2)C1 (single isomer, unassigned) [Compound 751] ?
> 1 µM

Which IC50 is listed for [H][C@@]1([C@]2([H])C[C@@]3(C[C@H](O)C3)C2)CC[C@@H](C)CN1C(=O)C(=O)Nc1cnc(N)c(C)c1 (single isomer, unassigned) [Compound 767] ?
> 1 µM

Which IC50 is listed for Cc1ccc([C@@H]2CC(F)(F)[C@@H](C)CN2C(=O)C(=O)Nc2cnc(N)c(C)c2)cn1 (single isomer, unassigned) [Compound 944] ?
> 1 µM

Which IC50 is listed for Cc1cc(NC(=O)C(=O)N2C[C@H](C)CC[C@@H]2C2CCCCC2)cnc1N (racemic) [Compound 175] ?
> 1 µM

Which IC50 is listed for Cc1cc(NC(=O)C(=O)N2C[C@@H](C)CC[C@@H]2c2ccc3sc(C4CCN(C)CC4)nc3c2)cnc1C [Compound 1137] ?
< 0.1 µM

Which IC50 is listed for CCc1cc(NC(=O)C(=O)N2C[C@H](C)CC[C@H]2c2ccc3sc(C)nc3c2)cnc1N (single isomer, unassigned) [Compound 801] ?
> 1 µM

Which IC50 is listed for C[C@H]1CC[C@H](c2cc3cn[nH]c3cc2F)N(C(=O)C(=O)Nc2cncc(C(N)=O)c2)C1 (single isomer, unassigned) [Compound 553] ?
> 1 µM

Which IC50 is listed for CCc1ccc([C@@H]2CC[C@@H](C)CN2C(=O)C(=O)Nc2cnc(N)c(C)c2)cn1 (single isomer, unassigned) [Compound 1013] ?
0.1 to 1 µM

Which IC50 is listed for CCc1cc(NC(=O)C(=O)N2C[C@@H](C)CC[C@@H]2c2cccc([C@H]3CCCN(C)C3)c2)cnc1N (single isomer, unassigned) [Compound 1285] ?
0.1 to 1 µM

Which IC50 is listed for Cc1cc(NC(=O)C(=O)N2C[C@H](C(F)(F)F)CC[C@H]2c2ccccc2)cnc1N (racemic) [Compound 177] ?
> 1 µM

---

Target: PRMT5 (Homo sapiens)
Construct: purchased Viva (custom protein)
Method Summary: PRMT5 biochemical IC50 assay with SAM as cofactor
Condition Parameters: PRMT5, SAM as cofactor; read-out: SAM IC50
Observable: IC50

Past entries and their recorded results:
Cc1cc(NC(=O)C(=O)N2CC[C@@H](C(=O)C(C)C)C[C@H]2c2ccc3c(c2)CCC(=O)N3)cnc1N (racemic) :: 50 to 500 nM
Cc1cc(NC(=O)C(=O)N2C[C@@H](C)CC[C@@H]2c2ccc(C(N)=O)s2)cnc1N (single isomer, unassigned) :: 50 to 500 nM
[H][C@@]1([C@]2([H])C[C@]3(C[C@H](O)C3)C2)CC[C@@H](C)CN1C(=O)C(=O)Nc1cnc(N)c(C)c1 (single isomer, unassigned) :: > 500 nM
CCc1cc(NC(=O)C(=O)N2C[C@@H](C)CC[C@@H]2c2ccc3cc(C)c(C4CCN(C)CC4)nc3c2)cnc1N :: 50 to 500 nM
CC(=O)N1CCC(c2cccc(C3CCCCN3C(=O)C(=O)Nc3cncc(C)c3)c2)CC1 (stereo not shown) [Compound 7] :: > 500 nM

Which IC50 is listed for Cc1cc(NC(=O)C(=O)N2C[C@H](C)CC[C@H]2C2CCCNC2)cnc1N (mixture of isomers) ?
> 500 nM

Which IC50 is listed for CNc1ccc([C@H]2CC[C@H](C)CN2C(=O)C(=O)Nc2cnc(N)c(C)c2)cn1 (single isomer, unassigned) ?
> 500 nM

---

Measured pIC50 accompanies every entry in the list below.
Target: PRMT5 (Homo sapiens, UniProt O14744)
Construct: purchased Viva (custom protein)
Sequence (O14744 whole entry): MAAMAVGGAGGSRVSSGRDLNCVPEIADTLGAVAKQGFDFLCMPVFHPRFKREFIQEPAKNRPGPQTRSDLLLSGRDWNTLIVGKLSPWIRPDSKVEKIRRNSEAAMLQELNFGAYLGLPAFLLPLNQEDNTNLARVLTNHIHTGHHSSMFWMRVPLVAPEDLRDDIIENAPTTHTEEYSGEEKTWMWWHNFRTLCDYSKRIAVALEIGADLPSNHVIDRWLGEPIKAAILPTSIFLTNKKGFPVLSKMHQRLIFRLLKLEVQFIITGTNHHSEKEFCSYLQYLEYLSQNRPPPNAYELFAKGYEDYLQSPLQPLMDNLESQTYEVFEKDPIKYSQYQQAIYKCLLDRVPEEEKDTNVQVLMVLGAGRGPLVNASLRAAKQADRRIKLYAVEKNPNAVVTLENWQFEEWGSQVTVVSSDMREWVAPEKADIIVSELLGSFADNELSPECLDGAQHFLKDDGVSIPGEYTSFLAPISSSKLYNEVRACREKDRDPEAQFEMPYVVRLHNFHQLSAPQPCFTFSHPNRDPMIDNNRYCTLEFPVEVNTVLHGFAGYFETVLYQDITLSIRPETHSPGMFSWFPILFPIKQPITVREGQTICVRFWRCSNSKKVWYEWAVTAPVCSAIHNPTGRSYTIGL
Sequence (Q9BQA1 whole entry partner): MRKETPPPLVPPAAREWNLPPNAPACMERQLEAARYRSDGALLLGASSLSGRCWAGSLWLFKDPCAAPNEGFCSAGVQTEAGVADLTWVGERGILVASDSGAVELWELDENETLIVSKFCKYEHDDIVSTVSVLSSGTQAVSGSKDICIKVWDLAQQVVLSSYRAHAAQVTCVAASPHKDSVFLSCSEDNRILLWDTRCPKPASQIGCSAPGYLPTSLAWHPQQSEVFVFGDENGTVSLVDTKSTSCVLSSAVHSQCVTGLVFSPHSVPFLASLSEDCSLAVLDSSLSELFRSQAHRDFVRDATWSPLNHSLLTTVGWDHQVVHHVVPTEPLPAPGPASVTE
Method Summary: PRMT5 biochemical IC50 assay with MTA as cofactor
Condition Parameters: PRMT5, MTA as cofactor; read-out: MTA IC50
pIC50: −log10 of the molar value.

Past entries and their recorded results:
C[C@@H]1CC[C@@H](c2cc(Cl)cc(C(F)(F)F)c2)N(C(=O)C(=O)Nc2cncc(C(N)=O)c2)C1 (single isomer, unassigned) [Compound 653] :: < 6.30
NC(=O)c1cncc(NC(=O)C(=O)N2CCC3(CC2)OCC2CC23)c1 (stereo not shown) [Compound 149] :: 6.30 to 7.30
Cc1cc(NC(=O)C(=O)N2C[C@@H](C)CC[C@@H]2c2cccc(S(C)(=O)=O)c2)cnc1N (single isomer, unassigned) [Compound 901] :: < 6.30
CCc1cc(NC(=O)C(=O)N2C[C@@H](C)CC[C@@H]2c2ccc3c(c2)C(=O)NC3)cnc1N (single isomer, unassigned) [Compound 700] :: > 7.30
C[C@@H]1CC[C@@H](c2ccc(-n3cccn3)cc2)N(C(=O)C(=O)Nc2cncc(C(N)=O)c2)C1 (racemic) [Compound 256] :: > 7.30
Cc1ccc([C@H]2CC[C@H](C)CN2C(=O)C(=O)Nc2cncc(C(N)=O)c2)cc1Cl (single isomer, unassigned) [Compound 484] :: > 7.30

Which pIC50 is listed for C[C@@H]1CC[C@@H](c2cc(Cl)cc(Cl)c2)N(C(=O)C(=O)Nc2cncc(C(N)=O)c2)C1 (racemic) [Compound 206] ?
> 7.30

Which pIC50 is listed for Cc1cc(NC(=O)C(=O)N2C[C@@H](C)CC[C@@H]2c2ccc3sc(CCN4CCCC4)nc3c2)cnc1N [Compound 1296] ?
> 7.30

---

Target: PRMT5 (Homo sapiens, UniProt O14744)
Construct: purchased Viva (custom protein)
Method Summary: PRMT5 biochemical IC50 assay with no cofactor
Condition Parameters: PRMT5, no cofactor; read-out: No Cofactor/ rel IC50
pIC50: −log10 of the molar value.
Measured pIC50 accompanies every entry in the list below.

Past entries and their recorded results:
CC1CCC2CCCCC2N1C(=O)C(=O)Nc1cncc(C(N)=O)c1 (stereo not shown) :: 6.30 to 7.30
CC1Cc2cc([C@@H]3CC[C@@H](C)CN3C(=O)C(=O)Nc3cncc(C(N)=O)c3)ccc2O1 (mixture of isomers) :: 6.30 to 7.30
CCc1cc(NC(=O)C(=O)N2C[C@@H](C)CC[C@@H]2c2ccc(N3CCCC4(CCN(C)CC4)C3)cc2)cnc1N :: > 7.30
Cc1cc(NC(=O)C(=O)N2C[C@@H](C)CC[C@@H]2c2cc(F)c3[nH]ncc3c2)cnc1N (single isomer, unassigned) :: > 7.30
Cc1cc(NC(=O)C(=O)N2CCCCC2c2ccccc2)cnc1N (racemic) :: 6.30 to 7.30

Which pIC50 is listed for NC(=O)c1cncc(NC(=O)C(=O)N2CCCCC2c2ccccc2)c1 (stereo not shown) ?
< 6.30

Which pIC50 is listed for "CCc1cc(NC(=O)C(=O)N2C[C@@H](C)CC[C@@H]2c2ccc3sc(CN(C)C)nc3c2)cnc1N" ?
> 7.30
